- assay method text: LNP average particle size and polydispersity by dynamic light scattering
- Assay type: physicochemical
- protocol conditions: Table 3, Experiment 14; LNP with 3% C13 Ether; sgRNA:mRNA 1:2
The label depends only on Number mean: criterion met if it is at least 60 nm, criterion not met if it is smaller.

Some entries whose results are on file:
CCCCCCCCC(CCCCCCCC)OC(=O)CCCC(=O)OCC(COC(=O)CCCC(=O)OC(CCCCCCCC)CCCCCCCC)COC(=O)NCCN(CC)CC :: criterion met
CCCCCCCCC(CCCCCCCC)OC(=O)CCCC(=O)OCC(COC(=O)CCCC(=O)OC(CCCCCCCC)CCCCCCCC)COC(=O)OCCCN(CC)CC :: criterion met
CCCCCCCCC(CCCCCCCC)C(=O)OCC(COC(=O)NCCN(CC)CC)COC(=O)C(CCCCCCCC)CCCCCCCC :: criterion not met

Query compound follows.
Is Number mean at least 60 nm? Consider `CCCCCCCCC(CCCCCCCC)OC(=O)CCCC(=O)OCC(COC(=O)CCCC(=O)OC(CCCCCCCC)CCCCCCCC)OC(=O)NCCN(CC)CC`
criterion met
